- METHOD: AUC (0 to infinity) in serum of methicillin-resistant Staphylococcus aureus infected ddY mouse at 100 mg/kg, ip administered 1 day post infection by fluorescence polarization immunoassay
- Type: ADME, organism-based
- Parameters: time infinity, dose 100 mg/kg, route intraperitoneal
REPORTED_PROPERTY: AUC(0-inf)

Give AUC(0-inf) for `CN[C@H](CC(C)C)C(=O)N[C@H]1C(=O)N[C@@H](CC(N)=O)C(=O)N[C@H]2C(=O)N[C@H]3C(=O)N[C@H](C(=O)N[C@H](C(=O)O)c4cc(O)cc(O)c4-c4cc3ccc4O)[C@H](O)c3ccc(c(Cl)c3)Oc3cc2cc(c3O[C@@H]2O[C@H](CO)[C@@H](O)[C@H](O)[C@H]2O[C@H]2C[C@](C)(N)[C@H](O)[C@H](C)O2)Oc2ccc(cc2Cl)[C@H]1O`
261 µg·h/mL
